- Target system: human IL-1β (human, UniProt P01584 117-269)
- Assay procedure: cell-based or functional assay
Recorded endpoint: MRC-5 IL-1β neutralization potency

Fill in the blank: the reported MRC-5 IL-1β neutralization potency of ABT2-108-620x/ABT1-122-511 huIgG1/K wt (bispecific antibody, V domains shown) VH: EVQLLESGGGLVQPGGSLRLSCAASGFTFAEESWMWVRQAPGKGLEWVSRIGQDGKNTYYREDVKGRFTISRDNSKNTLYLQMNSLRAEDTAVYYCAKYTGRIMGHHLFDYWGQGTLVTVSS VL: DIQMTQSPSSLSASVGDRVTITCRASQPIWTELNWYQQKPGKAPKLLIYGSSSLQRGVPSRFSGSGSGTDFTLTISSLQPEDFATYYCKQFAYFPATFGQGTKVEIKR is ____. ~0.03 nM

// query MRC-5 IL-1β neutralization potency value for entry ABT2-108-605/ABT1-122 hu IgG1/K wt (bispecific antibody, V domains shown) VH: EVQLLESGGGLVQPGGSLRLSCAASGFTFAEYTMMWVRQAPGKGLEWVSRIGQDGKNTYYREDVKGRFTISRDNSKNTLYLQMNSLRAEDTAVYYCAKYTGRVGVHHLFDYWGQGTLVTVSS VL: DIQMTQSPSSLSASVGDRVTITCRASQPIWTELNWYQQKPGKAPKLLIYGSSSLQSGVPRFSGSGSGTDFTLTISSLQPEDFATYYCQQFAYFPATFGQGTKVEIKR ~0.35 nM
